meta.source: PubChem BioAssay AID1963854

- Test system: 186277-243-T-J2-PDC complex spheroid viability
- testDetails: Anticancer human tumor 186277-243-T-J2-PDC patient-derived colon adenocarcinoma cell line growth inhibition [POLQ]
- assayConditions: second compound 0.1 µM; first compound 0.1 µM; stronger effect = lower value
Collected viability, T/C values appear next to each entry.
The figure you give is taken to be in %; do not add the unit.

Sample answers from the record:
• CCCS(=O)(=O)Nc1ccc(F)c(C(=O)c2c[nH]c3ncc(-c4ccc(Cl)cc4)cc23)c1F + COC1C(OC(N)=O)C(O)C(Oc2ccc3c(O)c(NC(=O)c4ccc(O)c(CC=C(C)C)c4)c(=O)oc3c2C)OC1(C)C = 76.9
• O=C(Nc1ccc(O)c(NS(=O)(=O)c2ccc(F)cc2)c1)c1ccc(-c2ccccc2)cc1 + COC1C(OC(N)=O)C(O)C(Oc2ccc3c(O)c(NC(=O)c4ccc(O)c(CC=C(C)C)c4)c(=O)oc3c2C)OC1(C)C = 105
• COc1cc(C2c3cc4c(cc3C(OC3OC5COC(C)OC5C(O)C3O)C3COC(=O)C23)OCO4)cc(OC)c1O (stereo not given) + COC1C(OC(N)=O)C(O)C(Oc2ccc3c(O)c(NC(=O)c4ccc(O)c(CC=C(C)C)c4)c(=O)oc3c2C)OC1(C)C = 113
• Cn1ncnc1[C@H]1c2n[nH]c(=O)c3cc(F)cc(c23)N[C@@H]1c1ccc(F)cc1 + Cc1cccc(N(C)C(=O)C2C(O)CCN2c2nc(C)cc(C(F)(F)F)c2C#N)c1 = 119

Now look at this entry.
Need viability, T/C, item Cn1ncnc1[C@H]1c2n[nH]c(=O)c3cc(F)cc(c23)N[C@@H]1c1ccc(F)cc1 + COC1C(OC(N)=O)C(O)C(Oc2ccc3c(O)c(NC(=O)c4ccc(O)c(CC=C(C)C)c4)c(=O)oc3c2C)OC1(C)C
108

---

- Tested on: 186277-243-T-J2-PDC complex spheroid viability
- testDetails: Anticancer human tumor 186277-243-T-J2-PDC cell line growth inhibition [POLQ];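 further: spheroids exposed to compounds for seven days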;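 on viability, T/C: 100% = DMSO vehicle control viability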
- assayConditions: second compound 0.1 µM; first compound 0.1 µM; stronger effect = lower value
Label label 1 when viability, T/C is strictly below 90%; otherwise label label 0.

Check out these entries, answers already filled in.
• CCc1cc2c(N3CCc4c(cc(Cn5ccnc5)cc4-c4cn(C)nc4C(F)(F)F)C3=O)ccnc2c(OC)n1 + COC1C(OC(N)=O)C(O)C(Oc2ccc3c(O)c(NC(=O)c4ccc(O)c(CC=C(C)C)c4)c(=O)oc3c2C)OC1(C)C = label 0
• COc1cc2cc(C(=O)CCC(=O)O)sc2cc1OC + Nc1ccc(C#CCN(C(=O)Cc2ncc(C(F)(F)F)cc2C(F)(F)F)c2ccc(F)cc2)nn1 = label 0

Please examine the following record next.
Here's an entry: CC1COCCN1c1cc(-c2ccnn2C)c2ccnc(-c3ccn[nH]3)c2n1 (stereo not given) + Cc1cccc(N(C)C(=O)C2C(O)CCN2c2nc(C)cc(C(F)(F)F)c2C#N)c1 . Is its viability, T/C below 90%?
label 1

---

- Test system: 186277-243-T-J2-PDC complex spheroid viability
- testDetails: Anticancer human tumor 186277-243-T-J2-PDC cell line growth inhibition [POLQ];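 further: spheroids exposed to compounds for seven days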;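 on viability, T/C: 100% = DMSO vehicle control viability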
- assayConditions: second compound 3.16 µM; first compound 0.001 µM; stronger effect = lower value
metric: viability, T/C (%)
Answer format: numeric, % implied, no suffix.

Recorded viability, T/C, per entry:
- Cn1ncnc1[C@H]1c2n[nH]c(=O)c3cc(F)cc(c23)N[C@@H]1c1ccc(F)cc1 + COC1C(OC(N)=O)C(O)C(Oc2ccc3c(O)c(NC(=O)c4ccc(O)c(CC=C(C)C)c4)c(=O)oc3c2C)OC1(C)C: 106
- Cn1ncnc1[C@H]1c2n[nH]c(=O)c3cc(F)cc(c23)N[C@@H]1c1ccc(F)cc1 + Cc1cccc(N(C)C(=O)C2C(O)CCN2c2nc(C)cc(C(F)(F)F)c2C#N)c1: 106
- CC[C@@]1(O)C(=O)OCc2c1cc1n(c2=O)Cc2cc3c(CN(C)C)c(O)ccc3nc2-1 + Cc1cccc(N(C)C(=O)C2C(O)CCN2c2nc(C)cc(C(F)(F)F)c2C#N)c1: 100

Consider the compound CC[C@@]1(O)C(=O)OCc2c1cc1n(c2=O)Cc2cc3c(CN(C)C)c(O)ccc3nc2-1 + Nc1ccc(C#CCN(C(=O)Cc2ncc(C(F)(F)F)cc2C(F)(F)F)c2ccc(F)cc2)nn1 and give its measured viability, T/C.
91.5

Consider the compound shown here: Cn1ncnc1[C@H]1c2n[nH]c(=O)c3cc(F)cc(c23)N[C@@H]1c1ccc(F)cc1 + Nc1ccc(C#CCN(C(=O)Cc2ncc(C(F)(F)F)cc2C(F)(F)F)c2ccc(F)cc2)nn1 What is its recorded viability, T/C?
111

Would you mind telling me what viability, T/C value was observed for CC[C@@]1(O)C(=O)OCc2c1cc1n(c2=O)Cc2cc3c(CN(C)C)c(O)ccc3nc2-1 + COC1C(OC(N)=O)C(O)C(Oc2ccc3c(O)c(NC(=O)c4ccc(O)c(CC=C(C)C)c4)c(=O)oc3c2C)OC1(C)C ?
107

---

viability, T/C listing for selected molecules.
- Test system: 186277-243-T-J2-PDC complex spheroid viability
- testDetails: Anticancer human tumor 186277-243-T-J2-PDC cell line growth inhibition [POLQ];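 further: spheroids exposed to compounds for seven days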;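 on viability, T/C: 100% = DMSO vehicle control viability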
- assayConditions: second compound 0.316 µM; first compound 0.0316 µM; stronger effect = lower value
Give your result in % as a bare value.

Past entries and their recorded results:
• CC1COCCN1c1cc(C2(O)CC3CCC(C2)O3)c2cnn(-c3ccn[nH]3)c2n1 (stereo not given) + Nc1ccc(C#CCN(C(=O)Cc2ncc(C(F)(F)F)cc2C(F)(F)F)c2ccc(F)cc2)nn1 = 116
• CC[C@@]1(O)C(=O)OCc2c1cc1n(c2=O)Cc2cc3c(CN(C)C)c(O)ccc3nc2-1 + Nc1ccc(C#CCN(C(=O)Cc2ncc(C(F)(F)F)cc2C(F)(F)F)c2ccc(F)cc2)nn1 = 124
• CC1COCCN1c1cc(-c2ccnn2C)c2ccnc(-c3ccn[nH]3)c2n1 (stereo not given) + Cc1cccc(N(C)C(=O)C2C(O)CCN2c2nc(C)cc(C(F)(F)F)c2C#N)c1 = 74.4
• O=C(Nc1ccc(O)c(NS(=O)(=O)c2ccc(F)cc2)c1)c1ccc(-c2ccccc2)cc1 + Cc1cccc(N(C)C(=O)C2C(O)CCN2c2nc(C)cc(C(F)(F)F)c2C#N)c1 = 86.6

--- query ---
Find the recorded viability, T/C belonging to CCCS(=O)(=O)Nc1ccc(F)c(C(=O)c2c[nH]c3ncc(-c4ccc(Cl)cc4)cc23)c1F + COC1C(OC(N)=O)C(O)C(Oc2ccc3c(O)c(NC(=O)c4ccc(O)c(CC=C(C)C)c4)c(=O)oc3c2C)OC1(C)C and report it.
91.4

---

- Tested on: 186277-243-T-J2-PDC complex spheroid viability
- testDetails: Anticancer human tumor 186277-243-T-J2-PDC cell line growth inhibition [POLQ];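 further: spheroids exposed to compounds for seven days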
- assayConditions: curve of first compound; second compound 0.0316 µM
metric: pIC50
// field semantics: pIC50 = negative decimal log of concentration (mol/L)

Reference set, count: 2
* C#Cc1c(F)ccc2cc(O)cc(-c3ncc4c(N5CC6CCC(C5)N6)nc(OCC56CCCN5CC(F)C6)nc4c3F)c12 (stereo not given) + Nc1ccc(C#CCN(C(=O)Cc2ncc(C(F)(F)F)cc2C(F)(F)F)c2ccc(F)cc2)nn1 | 6.50
* CC[C@@]1(O)C(=O)OCc2c1cc1n(c2=O)Cc2cc3c(CN(C)C)c(O)ccc3nc2-1 + COC1C(OC(N)=O)C(O)C(Oc2ccc3c(O)c(NC(=O)c4ccc(O)c(CC=C(C)C)c4)c(=O)oc3c2C)OC1(C)C | 7.16

Proceed to the following item.
Would you kindly share the measured pIC50 for COc1cccc2c1C(=O)c1c(O)c3c(c(O)c1C2=O)CC(O)(C(=O)CO)CC3OC1CC(N)C(O)C(C)O1 (stereo not given) + Cc1cccc(N(C)C(=O)C2C(O)CCN2c2nc(C)cc(C(F)(F)F)c2C#N)c1 ?
6.97

---

Here the recorded IC50 is given for each entry.
- Tested on: 186277-243-T-J2-PDC complex spheroid viability
- testDetails: Anticancer human tumor 186277-243-T-J2-PDC cell line growth inhibition [POLQ];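 further: spheroids exposed to compounds for seven days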
- assayConditions: curve of first compound; second compound 0.1 µM
Write it as a number; the unit µM goes unstated.

- COc1cc(C2c3cc4c(cc3C(OC3OC5COC(C)OC5C(O)C3O)C3COC(=O)C23)OCO4)cc(OC)c1O (stereo not given) + Nc1ccc(C#CCN(C(=O)Cc2ncc(C(F)(F)F)cc2C(F)(F)F)c2ccc(F)cc2)nn1: 3.96

Requested field: IC50. Item: C=CCn1c(=O)c2cnc(Nc3ccc(N4CCN(C)CC4)cc3)nc2n1-c1cccc(C(C)(C)O)n1 + Nc1ccc(C#CCN(C(=O)Cc2ncc(C(F)(F)F)cc2C(F)(F)F)c2ccc(F)cc2)nn1
0.224
